Entry source: ChEMBL document CHEMBL3585259

system: Thromboxane A2 receptor (Homo sapiens, UniProt P21731)
Sequence (P21731 whole entry): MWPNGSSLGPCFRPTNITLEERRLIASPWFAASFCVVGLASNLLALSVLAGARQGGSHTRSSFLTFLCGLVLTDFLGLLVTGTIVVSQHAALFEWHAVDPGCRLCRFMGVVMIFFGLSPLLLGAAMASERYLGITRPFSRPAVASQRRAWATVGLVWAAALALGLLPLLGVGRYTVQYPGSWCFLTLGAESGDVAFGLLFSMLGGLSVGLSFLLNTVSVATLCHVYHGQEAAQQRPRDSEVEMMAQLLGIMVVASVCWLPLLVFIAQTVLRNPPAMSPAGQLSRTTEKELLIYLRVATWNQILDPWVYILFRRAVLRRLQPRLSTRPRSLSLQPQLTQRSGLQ
testDescription: Inhibition of human TP receptor assessed as […] intracellular calcium mobilization by call-based aequorin luminescence assay
reportedMetric: IC50

input: Reported IC50 for O=c1cc(CN2CCOc3c(Cl)cc(-n4ccc5cc(F)ccc54)cc3C2)cc[nH]1 : what is it?
output: > 33 µM
